Test system: Rattus norvegicus
Method summary: Immunosuppressive activity against skin allograft in F344 recipient (rat) from LEW donor (rat) at a concentration of 10 mg/kg
Format: functional
Measured attribute: MST (days)
Answer in days, number only, no unit symbol.

Examples with answers:
Query string: Look up MST for this compound: "CCCCCCc1ccc(CCCCC(N)(CO)CO)cc1"
Result string: 18.8

Query string: // next record "CCCCc1ccc(CCCCCCC(N)(CO)CO)cc1.Cl"
Result string: 13.5

Query string: What would you report for "CCCCCCCc1ccc(CCCC(N)(CO)CO)cc1.Cl" ?
Result string: 10.5

Query string: Would you kindly repeat that for "CCCCCCCCCc1ccc(CC(N)(CO)CO)cc1.Cl" ?
Result string: 11.8

Note: attention shifts to another entry.
Query string: Record request: MST value, item "CCc1ccc(CCCCCCCCC(N)(CO)CO)cc1.Cl"
Result string: 8.6

====

Below, each entry is listed with its recorded MST.
Test system: Rattus norvegicus
Method summary: Immunosuppressive activity against skin allograft in F344 recipient (rat) from LEW donor (rat) at a concentration of 3 mg/kg
Assay type: functional
Quick reminder: number only, in days, skip the unit.

Query string: Endpoint output: MST of "C/C=C/C[C@@H](C)[C@@H](O)[C@H]1C(=O)N[C@@H](CC)C(=O)N(C)CC(=O)N(C)[C@@H](CC(C)C)C(=O)N[C@@H](C(C)C)C(=O)N(C)[C@@H](CC(C)C)C(=O)N[C@@H](C)C(=O)N[C@H](C)C(=O)N(C)[C@@H](CC(C)C)C(=O)N(C)[C@@H](CC(C)C)C(=O)N(C)[C@@H](C(C)C)C(=O)N1C" . Value?
Result string: 10.8

Query string: Now try "CCCCCCc1ccc(CCCCC(N)(CO)CO)cc1" .
Result string: 13.8

# ---- query compound ----
Query string: I have this compound here, "CCCCCCCCCCCCCCC(N)(CO)CO.Cl" , and I need its recorded MST.
Result string: 45.5

====

System: Rattus norvegicus
Method summary: Immunosuppressive activity against skin allograft in F344 recipient (rat) from LEW donor (rat) at a concentration of 3 mg/kg
Assay type: functional
Each entry below carries its reported MST.
Note: unit days is implicit; provide only the numeric part.

Query string: What value of MST has been reported for the following compound? "CCCCc1ccc(CCCCCCC(N)(CO)CO)cc1.Cl"
Result string: 9.8

Query string: Could you do the same for "CCCCCCCOc1ccc(CCC(N)(CO)CO)cc1.Cl" , please?
Result string: 39.5

Others:
Query string: Quick one: MST of CCCCCCCCc1ccc(CCC(N)(CO)CO)cc1.Cl [FINGOLIMOD HYDROCHLORIDE] ?
Result string: 52

====

Tested on: Rattus norvegicus
Method summary: Immunosuppressive activity against skin allograft in F344 recipient (rat) from LEW donor (rat) at a concentration of 0.3 mg/kg
Format: functional
Classify: Criterion met when MST is strictly less than 30 days; Criterion not met when MST is not.

Query string: State whether 30 days exceeds MST recorded for "Cl.NC(CO)(CO)CCCCCCCCCCc1ccccc1" .
Result string: Criterion met

Query string: Let us now turn to CCCCCCCCc1ccc(CCC(N)(CO)CO)cc1.Cl [FINGOLIMOD HYDROCHLORIDE]
Result string: Criterion not met

Query string: For "CCCCCCCOc1ccc(CCC(N)(CO)CO)cc1.Cl" then?
Result string: Criterion met

Query string: Another molecule: "CCCCCCCSc1ccc(CCC(N)(CO)CO)cc1"
Result string: Criterion not met

Query string: Would you mind doing "CCCCCCCC(=O)c1ccc(CCC(N)(CO)CO)cc1" as well?
Result string: Criterion met

Continuing:
Query string: Please let me know if "CCCCCCCCCc1ccc(CCC(N)(CO)CO)cc1.Cl" shows MST below 30 days.
Result string: Criterion met

Query string: Now consider "CCCCCCCCCCc1ccc(CCC(N)(CO)CO)cc1.Cl" .
Result string: Criterion not met

Query string: Check "CCCCCCCCc1ccc(CCC(N)(CO)CO)s1.Cl" too.
Result string: Criterion met

Query string: Quick one: "CCCCCCCCCCCCc1ccc(CCC(N)(CO)CO)cc1.Cl"
Result string: Criterion met

Query string: Query "CCCCCCCCCCCCCCC(N)(CO)CO.Cl" next
Result string: Criterion met

Query string: Request: "CCCCCCCCCCCc1ccc(CCC(N)(CO)CO)cc1.Cl"
Result string: Criterion met

Reference source: ChEMBL document CHEMBL1133083
